- Test system: HepG2
- assay.method.text: cytotoxicity call (relative viability < 0.9)
- conditions.used: 10 µM
Out of some 39,000 compounds screened, about 3,300 (8.5%) were called active. The full list was thinned out, with actives kept by preference.
Allowed answers: 1.0 for active, 0.0 for inactive

Task item: Tell me the assay call for `C[C@H](CO)N1C[C@H](C)[C@@H](CN(C)Cc2ccccc2)OCCCC[C@H](C)Oc2ccc(NC(=O)Nc3ccc(C(F)(F)F)cc3)cc2C1=O` please.
Reply: 1.0

Task item: Tell me the assay call for `C[C@H]1CN([C@@H](C)CO)S(=O)(=O)c2ccc(C#Cc3cccnc3)cc2O[C@@H]1CN(C)C(=O)CN(C)C` please.
Reply: 0.0

Task item: Tell me the assay call for `C[C@@H]1CN([C@H](C)CO)C(=O)Cc2cc(NC(=O)Cn3cnnn3)ccc2O[C@H]1CN(C)S(=O)(=O)c1ccc(F)cc1` please.
Reply: 0.0

Task item: Tell me the assay call for `CN(C)CCCNC(=O)C[C@@H]1CC[C@H]2[C@H](COc3ccc(NC(=O)c4cccc(F)c4)cc3C(=O)N2C)O1` please.
Reply: 0.0

Task item: Tell me the assay call for `Cc1noc(C)c1NC(=O)N(C)C[C@H]1OCCCC[C@H](C)Oc2ccc(NC(=O)C3CCCCC3)cc2C(=O)N([C@@H](C)CO)C[C@@H]1C` please.
Reply: 0.0

Task item: Tell me the assay call for `C=CCOC(=O)[C@@H]1[C@H]2C(=O)O[C@H](c3ccccc3)[C@H](c3ccccc3)N2[C@H](c2ccc(OCCOC(=O)[C@H]3C[C@H]4C(=O)N5CCC[C@H]5C(=O)N4[C@H]3c3ccc(O)cc3)cc2)[C@@]12C(=O)Nc1ccccc12` please.
Reply: 0.0

Task item: Tell me the assay call for `CO[C@H]1CCN(C(=O)CN(C)C)[C@@H]2CCO[C@@H]12` please.
Reply: 0.0

Task item: Tell me the assay call for `COc1ccc(C#Cc2cnc3c(c2)C(=O)N([C@@H](C)CO)C[C@H](C)[C@@H](CN(C)C(=O)CN(C)C)O3)cc1` please.
Reply: 0.0

Task item: Tell me the assay call for `C[C@@H]1CN([C@@H](C)CO)C(=O)c2cc(NC(=O)C3CCCCC3)ccc2O[C@H]1CN(C)Cc1ccc(-c2ccccc2)cc1` please.
Reply: 0.0

Task item: Tell me the assay call for `Cn1cccc1CNCCCN1CCOCC1` please.
Reply: 0.0

Task item: Tell me the assay call for `C[C@@H]1CCCCO[C@@H](CN(C)C(=O)c2ccccc2)[C@H](C)CN([C@H](C)CO)C(=O)c2cc(NC(=O)c3ccccc3)ccc2O1` please.
Reply: 0.0

Task item: Tell me the assay call for `CN(C)c1cc(CNCC(C)(C)C)c(O)c2c1C[C@H]1C[C@H]3[C@H](N(C)C)C(=O)[C@H](C(N)=O)C(=O)[C@@]3(O)C(=O)[C@@H]1C2=O` please.
Reply: 0.0

Task item: Tell me the assay call for `Cc1ccc(NC(=O)[C@@H]2[C@@H]3CC/C=C\CC/C=C/CC[C@@H]32)cc1C` please.
Reply: 0.0
